target: human ether-à-go-go-related gene (hERG) potassium channel (human, UniProt Q12809); experiment: primary screen, population patch clamp on CHO cells stably expressing hERG; higher = less effect of the substance;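 note: peak tail current of the secondary pulse compared with the same well before compound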
Sequence (Q12809 whole entry, looked up): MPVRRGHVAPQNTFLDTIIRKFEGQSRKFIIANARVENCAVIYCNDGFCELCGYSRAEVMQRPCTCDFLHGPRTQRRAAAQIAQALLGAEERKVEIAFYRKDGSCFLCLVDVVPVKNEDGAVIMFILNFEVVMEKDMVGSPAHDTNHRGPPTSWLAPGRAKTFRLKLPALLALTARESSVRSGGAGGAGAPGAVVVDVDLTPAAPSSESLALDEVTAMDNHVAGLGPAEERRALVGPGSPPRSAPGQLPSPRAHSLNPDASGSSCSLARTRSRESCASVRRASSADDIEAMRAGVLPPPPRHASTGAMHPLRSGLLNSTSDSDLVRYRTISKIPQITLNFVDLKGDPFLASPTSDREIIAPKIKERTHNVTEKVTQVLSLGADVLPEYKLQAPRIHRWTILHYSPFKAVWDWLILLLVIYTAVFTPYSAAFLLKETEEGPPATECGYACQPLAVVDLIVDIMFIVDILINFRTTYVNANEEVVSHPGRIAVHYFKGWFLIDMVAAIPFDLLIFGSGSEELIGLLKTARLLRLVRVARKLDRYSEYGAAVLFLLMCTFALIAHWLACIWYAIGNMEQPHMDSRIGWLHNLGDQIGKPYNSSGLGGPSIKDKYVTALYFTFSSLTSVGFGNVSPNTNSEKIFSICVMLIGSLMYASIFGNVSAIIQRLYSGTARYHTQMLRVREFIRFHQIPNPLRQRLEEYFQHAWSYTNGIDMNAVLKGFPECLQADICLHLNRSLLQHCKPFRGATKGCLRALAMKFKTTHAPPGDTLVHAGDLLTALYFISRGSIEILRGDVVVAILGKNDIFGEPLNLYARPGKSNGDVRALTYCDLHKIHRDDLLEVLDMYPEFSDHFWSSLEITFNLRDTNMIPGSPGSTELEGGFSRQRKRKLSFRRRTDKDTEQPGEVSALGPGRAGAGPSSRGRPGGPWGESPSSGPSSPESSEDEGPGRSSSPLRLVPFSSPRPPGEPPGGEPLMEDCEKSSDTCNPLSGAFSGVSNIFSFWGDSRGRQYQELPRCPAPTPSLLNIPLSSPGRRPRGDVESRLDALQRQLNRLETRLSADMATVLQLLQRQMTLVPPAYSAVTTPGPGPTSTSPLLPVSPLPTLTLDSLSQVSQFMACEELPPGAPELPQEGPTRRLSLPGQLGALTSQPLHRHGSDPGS
Hit rate of the full screen: of about 310,000 compounds, about 14,000 (4.5%) showed an effect of 50% or more. Effects have a minus sign here. The full list was thinned out, with strong results kept by preference.
Kindly supply the reported hERG current change (%, negative = inhibition) at 10uM values for the records listed here.
One number for each entry, in %.

// solved cases for hERG current change (%, negative = inhibition) at 10uM follow
NC(=O)c1nsc(C(=O)N(c2cccc(F)c2)C(C(=O)NCc2ccccc2)c2ccc(O)cc2)c1N (stereo not drawn): -22.4
CC(C)OCCCNc1ncnc2c1[nH]c1ccc(F)cc12: -2.39
CCC(=O)N(CC)c1nc(-c2cc(OC)ccc2OC)cs1: 15
CN1CCN(CCc2nc3cc(NC(=O)COc4ccccc4)ccc3n2C)CC1: -32.6
COc1ccc(C2C(C#N)=C(C)NC3=C2C(=O)CC(C)(C)C3)c(OC)c1 (stereo not drawn): -6.3
COc1ccc(CCNC(=O)C(=O)Nc2ccc3nc4n(c(=O)c3c2)CCCCC4)cc1OC: -27.3
Cc1cccc(OCC(=O)Nc2ccc3c(c2)nc(CCN2CCN(C)CC2)n3C)c1: -37.1
OCCC1CN(Cc2cccc3nonc23)CCN1C1CCCCC1 (stereo not drawn): -5.74
S=C(c1ccccc1)N(c1ccccc1)c1ccccc1: 7.21
CCOc1ncccc1C(=O)OCC(=O)Nc1ccc(C)c(S(=O)(=O)N2CCOCC2)c1: -27

Below are 2 compounds. Give each one its hERG current change (%, negative = inhibition) at 10uM.
1. CCC(=O)NCCc1nc2cc(NC(=O)Nc3ccccc3)ccc2n1C
2. CC1(C)CC2CC(C)(CN2C(=O)c2cc(-c3ccccc3O)on2)C1 (stereo not drawn)

1: 18.8; 2: 12.7

Below are 8 compounds. Give each one its hERG current change (%, negative = inhibition) at 10uM.
1. Cc1ccc2cc3cc(C(=O)NCc4ccco4)oc3nc2c1
2. Cc1ccc2cc3cc(C(=O)NCCCN4CCCC4)oc3nc2c1
3. OCC1(Cc2ccccc2)CCN(Cc2ccc(-c3ccco3)cc2)CC1
4. Cl.O=C(CCS(=O)(=O)c1ccccc1)N(CCCN1CCOCC1)c1nc2ccccc2s1
5. CC(C)CN1CCC(CNC(=O)CCc2nnc(Cc3c[nH]c4ccccc34)o2)CC1
6. CCC(=O)N(CCCN(C)C)c1nc(-c2cc(OC)ccc2OC)cs1.Cl
7. CCN1CCCC1CNc1ncnc2c1[nH]c1ccc(F)cc12 (stereo not drawn)
8. CCN1CCCC1CNc1ncnc2c1[nH]c1ccc(Cl)cc12 (stereo not drawn)

1. -1.21
2. -15.5
3. -66.6
4. -14.1
5. -1.27
6. -37.3
7. -76.6
8. -77.1

Below are 7 compounds. Give each one its hERG current change (%, negative = inhibition) at 10uM.
1. CC(=O)NCCc1nc2cc(NC(=O)COc3cccc(C)c3)ccc2n1C
2. O=C(Nc1ccc(N2CCOCC2)c2nonc12)C1CCCC1
3. COc1ccc(Cl)cc1S(=O)(=O)N(C)CC(=O)NCc1ccccn1
4. OCCC1CN(Cc2cccc3nonc23)CCN1Cc1ccsc1 (stereo not drawn)
5. Cc1ccc2cc3cc(C(=O)NCCCN4CCc5ccccc5C4)oc3nc2c1
6. COc1ccc(CCNC(=O)CCc2nc3ccccc3[nH]2)cc1OC
7. Cc1ccc2oc(=O)c3cc(C(=O)NCCCN4CCc5ccccc5C4)sc3c2c1

[6.53, 3.34, 17.8, -52.6, -54.9, -7.59, -6.63]
